Give phosphorylation enrichment for every item shown.
Test system: Fer (mouse);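 also: 11-residue human phosphosite peptides and single-mutation variants displayed on the E. coli surface, counted by deep sequencing, each peptide's frequency after selection divided by its frequency in the unselected input library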;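 also: frequency after pTyr selection over input frequency; kinase dosed for 20-30% of maximal phosphorylation in three min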
Experiment: phosphorylation enrichment, bacterial display (enrichment ratio); higher = better substrate or ligand; peptides without Tyr show the background

The reported value for SHMVDYQPYRK [TEX37_Y25] in terms of phosphorylation enrichment is 0.575

The reported value for SSNLYYRWLTA [CNGA3_Y169] in terms of phosphorylation enrichment is 1.98

The reported value for GKFFQYDTWNQ [IGF2_Y116_K120N] in terms of phosphorylation enrichment is 0.533

The reported value for DDEESYENVPR [FCRL3_Y722_N721S] in terms of phosphorylation enrichment is 0.427

The reported value for PSSNLYFRWLT [CNGA3_Y168_YF] in terms of phosphorylation enrichment is 1.02

The reported value for LDAGEYCVPRG [BEX1_Y43] in terms of phosphorylation enrichment is 1.47

The reported value for CTTIHYNYMCK [TP53_Y234_N239K] in terms of phosphorylation enrichment is 0.5
